Listing of recorded protein stability index by entry.
B1: ZNF511 (parent)
chain: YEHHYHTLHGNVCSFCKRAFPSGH

# Variants of: B1
# Test Description: protein stability index of a GFP-peptide fusion (GPS, HEK-293T) (PSI 1-6); higher = more stable;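 also: lentivirally expressed fusions sorted by FACS into six bins by GFP to DsRed ratio, PSI derived from sequencing read proportions per bin multiplied by bin number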
# Condition Label: c terminus: a fixed tail appended
Metric: protein stability index

[[record]]
mutation_notation = "H3R"
data_value = 2.09

[[record]]
mutation_notation = "H24Y"
data_value = 1.65

[[record]]
mutation_notation = "P21S"
data_value = 2.48

[[record]]
mutation_notation = "C13M"
data_value = 1.83

[[record]]
mutation_notation = "T7P"
data_value = 2.2

[[record]]
mutation_notation = "H24I"
data_value = 1.78

[[record]]
mutation_notation = "R18S"
data_value = 2.26

[[record]]
mutation_notation = "F15R"
data_value = 2.35

[[record]]
mutation_notation = "F15A"
data_value = 2.76

[[record]]
mutation_notation = "P21W"
data_value = 1.61

[[record]]
mutation_notation = "A19N"
data_value = 2.37

